Entries annotated with measured Stability WB_Mouse (ice; 1 hr)
Assay: Stability in mouse blood
Type: in vitro ADME
Conditions: on ice, percent unchanged test compound
Quick reminder: number only, in %, skip the unit.

{"compound": "CCOc1nc(N)nc2c1ncn2[C@@H]1O[C@@H]2COP(=O)(NCCC(=O)OC(C)C)O[C@H]2[C@@]1(C)F (single isomer, unassigned) [Compound 2 Diastereomer 2]", "unit annotation": "%", "Stability WB_Mouse (ice; 1 hr)": 60}
{"compound": "CCOc1nc(N)nc2c1ncn2[C@@H]1O[C@@H]2COP(=O)(N[C@@H](C)C(=O)OC(C)C)O[C@H]2[C@@]1(C)F (single isomer, unassigned) [Compound 1 Diastereomer 2]", "unit annotation": "%", "Stability WB_Mouse (ice; 1 hr)": 36}

Please find the next compound below.
Lab note: CCOc1nc(N)nc2c1ncn2[C@@H]1O[C@@H]2COP(=O)(N[C@@H](C)COC(=O)C(C)C)O[C@H]2[C@@]1(C)F (single isomer, unassigned) [Compound 3 Diastereomer 2] gave Stability WB_Mouse (ice; 1 hr) of 20

Where these numbers come from: patent US9109001B2
